Please respond with reported Number of Mice Protected From 3-MPA-Induced Convulsions for every item in the list.
Test system: 3-mercaptopropionic acid (3-MPA)-induced convulsions
run_description: 3-MPA-induced convulsions, protection of mice
Type: in vivo, male Swiss albino mice
assay_context: oral 100 mpk, interval 30 min; 3-MPA 120 mg/kg s.c.; total protected of two groups of 5 mice
Answers are plain numbers, in mice.

Example cases with answers are listed next.
NC(=O)CNC(c1ccccc1)c1ccccc1 [Compound 18, 2-diphenylmethylaminoacetamide]; 10
Cc1ccc(C(NCC(N)=O)c2ccccc2)c(C)c1 (centres unmarked); 6
NC(=O)CNC(c1ccccc1)c1ccc(F)cc1 (centres unmarked); 10
NC(=O)CNC(c1ccccc1)c1ccccc1Cl (centres unmarked); 9
NC(=O)CNC(c1ccc(F)cc1)c1ccccc1Cl (centres unmarked); 10

Need Number of Mice Protected From 3-MPA-Induced Convulsions for each of these compounds.
1. COc1ccc(C(NCC(N)=O)c2ccccc2)cc1 (centres unmarked)
2. NC(=O)CNC(c1ccccc1)c1ccc(Cl)cc1 (centres unmarked)

[8, 9]

API: value(readout=Number of Mice Protected From 3-MPA-Induced Convulsions, system=3-mercaptopropionic acid (3-MPA)-induced convulsions) for record NC(=O)CNC(c1ccccc1)c1cccc(Cl)c1 (centres unmarked)
9
